Listing of entries alongside the reported Displacement (%).
system_under_test: TNFa/TNFRI interaction (Homo sapiens, UniProt P01375)
Sequence (P01375 77-233 limits assumed): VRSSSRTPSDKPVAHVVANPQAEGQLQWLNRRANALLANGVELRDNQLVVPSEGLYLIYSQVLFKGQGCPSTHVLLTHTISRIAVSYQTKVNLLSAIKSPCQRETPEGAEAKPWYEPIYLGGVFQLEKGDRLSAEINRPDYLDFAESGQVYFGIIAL
measurement_protocol: TNFa/TNFRI interaction displacement test
Format: binding
experimental_conditions: compounds at 50 μM; human TNFRI 100 ng/ml
Protocol: Microtiter plates (96 wells) are covered with 100 μl per well of human TNFRI, at a concentration of 100 ng/ml, then incubated overnight at 4° C. […] After three washes, 100 μl of biotinylated anti-cytokine secondary antibody are added to each well and incubated for 2 h at 37° C. […] The plates are then read with a spectrophotometer at 450 nm, measuring the optical density (OD) for each well.
endpoint_name: Displacement (%)

                                    molecule  endpoint_unit  readout_value
 0  FC(F)(F)c1cccc(-n2cc(CN(Cc3cccnc3)CC3CCCN(C4CCCCC4)C3)c3ccccc32)c1 (stereo not drawn) [Compound 4]              %            221
 1  FC(F)(F)c1cccc(-n2cc(CN(Cc3ccncc3)CC3CCCN(C4CCCCC4)C3)c3ccccc32)c1 (stereo not drawn) [Compound 6]              %            153
 2  CN(CCCCN(Cc1cccnc1)Cc1cn(S(=O)(=O)c2ccccc2)c2ccccc12)C1CCCCC1 [Compound 17]              %            133
 3  CN(CCCCN(Cc1cccnc1F)Cc1cn(S(=O)(=O)c2ccccc2)c2ccccc12)C1CCCCC1 [Compound 49]              %            127
 4  CN(CCCN(Cc1cccnc1)Cc1cn(-c2cccc(C(F)(F)F)c2)c2ccccc12)C1CCCCC1 [Compound 13]              %            186
 5  O=S(=O)(c1ccccc1)n1cc(CN(Cc2ccccn2)CC2CCCN(C3CCCCC3)C2)c2ccccc21 (stereo not drawn) [Compound 1]              %            178
 6  CN(CCCCN(Cc1ccncc1)Cc1cn(-c2cccc(C(F)(F)F)c2)c2ccccc12)C1CCCCC1 [Compound 24]              %            158
 7  CN(CCCCN(Cc1cccnc1F)Cc1cn(S(=O)(=O)c2ccccc2)c2ccccc12)C1CCCCCC1 [Compound 74]              %            160
 8  O=S(=O)(c1ccccc1)n1cc(CN(CCCCCNC2CCCCC2)Cc2ccnc(F)c2)c2ccccc21 [Compound 47]              %             99
 9  O=S(=O)(c1ccccc1)n1cc(CN(CCCCNC2CCCCC2)Cc2ccncc2)c2ccccc21 [Compound 16]              %            165
10  CN(CCN(Cc1cccnc1)Cc1cn(-c2cccc(C(F)(F)F)c2)c2ccccc12)C1CCCCC1 [Compound 32]              %            125
11  FC(F)(F)c1cccc(-n2cc(CN(CCCCNC3CCCCC3)Cc3cccnc3)c3ccccc32)c1 [Compound 21]              %            141
12  O=S(=O)(c1ccccc1)n1cc(CN(CCCCNC2CCCCCC2)Cc2cccnc2F)c2ccccc21 [Compound 73]              %            161
13  O=S(=O)(c1ccccc1)n1cc(CN(CCCCCNCc2cccnc2F)Cc2cccnc2F)c2ccccc21 [Compound 62]              %            105
14  CN(CCN(Cc1cccnc1)Cc1cn(S(=O)(=O)c2ccccc2)c2ccccc12)C1CCCCC1 [Compound 27]              %            121
